System: A549
Assay: Cytotoxicity against human A549 cells assessed as reduction in cell viability by MTT assay
Type: functional, cell-based
Note to self: use 1.0 only for IC50 readings below 10 µM; a reading exactly at 10 µM still gets 0.0.

{"chem-smiles": "CCCCCCCC(=O)Nc1cc2c(cc1F)c(=O)c(C(=O)OCC)cn2CC", "assayed-system": "A549", "assigned-category": 1.0}
{"chem-smiles": "CCCCCCCCCCCCCCCC(=O)Nc1cc2c(cc1F)c(=O)c(C(=O)OCC)cn2CC", "assayed-system": "A549", "assigned-category": 0.0}
{"chem-smiles": "C=CCCCCCCCCC(=O)Nc1cc2c(cc1F)c(=O)c(C(=O)OCC)cn2CC", "assayed-system": "A549", "assigned-category": 0.0}
{"chem-smiles": "CCCCCCCCCCCC(=O)Nc1cc2c(cc1F)c(=O)c(C(=O)OCC)cn2CC", "assayed-system": "A549", "assigned-category": 0.0}
{"chem-smiles": "CCCCCCCCCCCCCCCCCC(=O)Nc1cc2c(cc1F)c(=O)c(C(=O)OCC)cn2CC", "assayed-system": "A549", "assigned-category": 0.0}
{"chem-smiles": "CCCCCCCCCCCCCC(=O)Nc1cc2c(cc1F)c(=O)c(C(=O)OCC)cn2CC", "assayed-system": "A549", "assigned-category": 1.0}
{"chem-smiles": "CCCCCC(=O)Nc1cc2c(cc1F)c(=O)c(C(=O)OCC)cn2CC", "assayed-system": "A549", "assigned-category": 1.0}

----------
Recorded pIC50 by entry
Tested on: MCF7
Assay: Cytotoxicity against human MCF7 cells assessed as reduction in cell viability by MTT assay
Type: functional, cell-based
pIC50: −log10 of the molar value.
measured-metric: pIC50

{"chem-smiles": "CCCCCCCCCCCC(=O)Nc1cc2c(cc1F)c(=O)c(C(=O)OCC)cn2CC", "assayed-system": "MCF7", "numeric-result": 4.95}
{"chem-smiles": "C=CCCCCCCCCC(=O)Nc1cc2c(cc1F)c(=O)c(C(=O)OCC)cn2CC", "assayed-system": "MCF7", "numeric-result": 4.19}
{"chem-smiles": "CCCCCC(=O)Nc1cc2c(cc1F)c(=O)c(C(=O)OCC)cn2CC", "assayed-system": "MCF7", "numeric-result": 5.01}
{"chem-smiles": "CCCCCCCCCCCCCCCCCC(=O)Nc1cc2c(cc1F)c(=O)c(C(=O)OCC)cn2CC", "assayed-system": "MCF7", "numeric-result": 4.55}
{"chem-smiles": "CCCCCCCC(=O)Nc1cc2c(cc1F)c(=O)c(C(=O)OCC)cn2CC", "assayed-system": "MCF7", "numeric-result": 5.10}
{"chem-smiles": "CCCCCCCCCCCCCC(=O)Nc1cc2c(cc1F)c(=O)c(C(=O)OCC)cn2CC", "assayed-system": "MCF7", "numeric-result": 5.04}
{"chem-smiles": "CCCCCCCCCCCCCCCC(=O)Nc1cc2c(cc1F)c(=O)c(C(=O)OCC)cn2CC", "assayed-system": "MCF7", "numeric-result": 4.73}

----------
System: Candida albicans
Assay: Antifungal activity against Candida albicans MTCC 3017 […] after 24 hrs at 30 degC by well diffusion method
Type: functional
Settings: MTCC 3017, 24 h
measured-metric: MIC

{"molecule": "Clc1ccc(COC(Cn2ccnc2)c2ccc(Cl)cc2Cl)c(Cl)c1 (centres undefined)", "result": "7.8 µg/mL"}
{"molecule": "C=CCCCCCCCCC(=O)Nc1cc2c(cc1F)c(=O)c(C(=O)OCC)cn2CC", "result": "> 125 µg/mL"}
{"molecule": "CCCCCCCC/C=C/CCCCCCCC(=O)Nc1cc2c(cc1F)c(=O)c(C(=O)OCC)cn2CC", "result": "> 125 µg/mL"}
{"molecule": "CCCCCCCCCCCCCC(=O)Nc1cc2c(cc1F)c(=O)c(C(=O)OCC)cn2CC", "result": "> 125 µg/mL"}
{"molecule": "CCCCCCCCCCCC(=O)Nc1cc2c(cc1F)c(=O)c(C(=O)OCC)cn2CC", "result": "> 125 µg/mL"}
{"molecule": "CCCCCCCCCCCCCCCC(=O)Nc1cc2c(cc1F)c(=O)c(C(=O)OCC)cn2CC", "result": "> 125 µg/mL"}
{"molecule": "CCCCCC(=O)Nc1cc2c(cc1F)c(=O)c(C(=O)OCC)cn2CC", "result": "31.2 µg/mL"}
{"molecule": "CCCCCCCCCCCCCCCCCC(=O)Nc1cc2c(cc1F)c(=O)c(C(=O)OCC)cn2CC", "result": "> 125 µg/mL"}
{"molecule": "CCCCCCCC(=O)Nc1cc2c(cc1F)c(=O)c(C(=O)OCC)cn2CC", "result": "> 125 µg/mL"}
